# Details: in ethanol, 303.22 K
Property Name: solubility (mole fraction)
Answers are plain numbers.

Fill in reported solubility (mole fraction) for this entry: CC(CN1c2ccccc2S(=O)(=O)c2ccccc21)N(C)C.Cl (stereo unspecified)
0.0005

----------
# Details: in NMP, 278.16 K
Property Name: solubility (mole fraction)
Answers are plain numbers.

Fill in reported solubility (mole fraction) for this entry: CC(CN1c2ccccc2S(=O)(=O)c2ccccc21)N(C)C.Cl (stereo unspecified)
0.00641

----------
# Details: in water, 278.28 K
Property Name: solubility (mole fraction)
Give bare numbers.

Fill in reported solubility (mole fraction) for this entry: CC(CN1c2ccccc2S(=O)(=O)c2ccccc21)N(C)C.Cl (stereo unspecified)
0.00136

----------
# Details: in acetone, 293.17 K
Property Name: solubility (mole fraction)
Give bare numbers.

Fill in reported solubility (mole fraction) for this entry: CC(CN1c2ccccc2S(=O)(=O)c2ccccc21)N(C)C.Cl (stereo unspecified)
0.000177

----------
# Details: in NMP, 308.17 K
Property Name: solubility (mole fraction)
Give bare numbers.

Fill in reported solubility (mole fraction) for this entry: CC(CN1c2ccccc2S(=O)(=O)c2ccccc21)N(C)C.Cl (stereo unspecified)
0.00975

----------
# Details: in ethanol, 313.17 K
Property Name: solubility (mole fraction)
Answers are plain numbers.

Fill in reported solubility (mole fraction) for this entry: CC(CN1c2ccccc2S(=O)(=O)c2ccccc21)N(C)C.Cl (stereo unspecified)
0.000686

----------
# Details: in ethanol, 318.2 K
Property Name: solubility (mole fraction)

Fill in reported solubility (mole fraction) for this entry: CC(CN1c2ccccc2S(=O)(=O)c2ccccc21)N(C)C.Cl (stereo unspecified)
0.000829

----------
# Details: in methanol, 293.26 K
Property Name: solubility (mole fraction)
Numbers only.

Fill in reported solubility (mole fraction) for this entry: CC(CN1c2ccccc2S(=O)(=O)c2ccccc21)N(C)C.Cl (stereo unspecified)
0.00137

----------
# Details: in acetone, 318.18 K
Property Name: solubility (mole fraction)
One number for each entry.

Fill in reported solubility (mole fraction) for this entry: CC(CN1c2ccccc2S(=O)(=O)c2ccccc21)N(C)C.Cl (stereo unspecified)
0.000278

----------
# Details: in acetone, 308.21 K
Property Name: solubility (mole fraction)
One number for each entry.

Fill in reported solubility (mole fraction) for this entry: CC(CN1c2ccccc2S(=O)(=O)c2ccccc21)N(C)C.Cl (stereo unspecified)
0.000237

----------
# Details: in water, 303.18 K
Property Name: solubility (mole fraction)

Fill in reported solubility (mole fraction) for this entry: CC(CN1c2ccccc2S(=O)(=O)c2ccccc21)N(C)C.Cl (stereo unspecified)
0.00379

----------
# Details: in acetone, 298.18 K
Property Name: solubility (mole fraction)
Answers are plain numbers.

Fill in reported solubility (mole fraction) for this entry: CC(CN1c2ccccc2S(=O)(=O)c2ccccc21)N(C)C.Cl (stereo unspecified)
0.000199

----------
# Details: in acetic acid, 308.2 K
Property Name: solubility (mole fraction)

Fill in reported solubility (mole fraction) for this entry: CC(CN1c2ccccc2S(=O)(=O)c2ccccc21)N(C)C.Cl (stereo unspecified)
0.00433

----------
# Details: in methanol, 283.22 K
Property Name: solubility (mole fraction)
Numbers only.

Fill in reported solubility (mole fraction) for this entry: CC(CN1c2ccccc2S(=O)(=O)c2ccccc21)N(C)C.Cl (stereo unspecified)
0.000925

----------
# Details: in ethanol, 283.21 K
Property Name: solubility (mole fraction)
One number for each entry.

Fill in reported solubility (mole fraction) for this entry: CC(CN1c2ccccc2S(=O)(=O)c2ccccc21)N(C)C.Cl (stereo unspecified)
0.000296

----------
# Details: in water, 283.27 K
Property Name: solubility (mole fraction)
Give bare numbers.

Fill in reported solubility (mole fraction) for this entry: CC(CN1c2ccccc2S(=O)(=O)c2ccccc21)N(C)C.Cl (stereo unspecified)
0.00163

----------
# Details: in ethanol, 293.18 K
Property Name: solubility (mole fraction)
Answers are plain numbers.

Fill in reported solubility (mole fraction) for this entry: CC(CN1c2ccccc2S(=O)(=O)c2ccccc21)N(C)C.Cl (stereo unspecified)
0.000365

----------
# Details: in water, 288.27 K
Property Name: solubility (mole fraction)
Numbers only.

Fill in reported solubility (mole fraction) for this entry: CC(CN1c2ccccc2S(=O)(=O)c2ccccc21)N(C)C.Cl (stereo unspecified)
0.002

----------
# Details: in acetic acid, 313.17 K
Property Name: solubility (mole fraction)

Fill in reported solubility (mole fraction) for this entry: CC(CN1c2ccccc2S(=O)(=O)c2ccccc21)N(C)C.Cl (stereo unspecified)
0.00548

----------
# Details: in acetic acid, 338.2 K
Property Name: solubility (mole fraction)
Give bare numbers.

Fill in reported solubility (mole fraction) for this entry: CC(CN1c2ccccc2S(=O)(=O)c2ccccc21)N(C)C.Cl (stereo unspecified)
0.0149

----------
# Details: in acetone, 303.17 K
Property Name: solubility (mole fraction)

Fill in reported solubility (mole fraction) for this entry: CC(CN1c2ccccc2S(=O)(=O)c2ccccc21)N(C)C.Cl (stereo unspecified)
0.000216

----------
# Details: in DMF, 313.17 K
Property Name: solubility (mole fraction)
Answers are plain numbers.

Fill in reported solubility (mole fraction) for this entry: CC(CN1c2ccccc2S(=O)(=O)c2ccccc21)N(C)C.Cl (stereo unspecified)
0.00658

----------
# Details: in DMF, 303.19 K
Property Name: solubility (mole fraction)
Answers are plain numbers.

Fill in reported solubility (mole fraction) for this entry: CC(CN1c2ccccc2S(=O)(=O)c2ccccc21)N(C)C.Cl (stereo unspecified)
0.00554

----------
# Details: in methanol, 303.19 K
Property Name: solubility (mole fraction)

Fill in reported solubility (mole fraction) for this entry: CC(CN1c2ccccc2S(=O)(=O)c2ccccc21)N(C)C.Cl (stereo unspecified)
0.00185

----------
# Details: in acetic acid, 333.19 K
Property Name: solubility (mole fraction)
Numbers only.

Fill in reported solubility (mole fraction) for this entry: CC(CN1c2ccccc2S(=O)(=O)c2ccccc21)N(C)C.Cl (stereo unspecified)
0.0123

----------
# Details: in acetone, 288.16 K
Property Name: solubility (mole fraction)
One number for each entry.

Fill in reported solubility (mole fraction) for this entry: CC(CN1c2ccccc2S(=O)(=O)c2ccccc21)N(C)C.Cl (stereo unspecified)
0.00015
